# assay.overview: Aerobic cytotoxic activity was evaluated by the growth inhibition of UV4 aerobic cells
# Assay type: functional, cell-based
# setup.conditions: Cricetulus griseus
assay.metric: IC50 (µM)

molecule_smiles=CN(C)CCNC(=O)c1cc(N(CCCl)CCCl)c([N+](=O)[O-])cc1[N+](=O)[O-] unit_of_measurement=µM numeric_result=3.1
molecule_smiles=NC(=O)c1cc(N(CCCl)CCCl)c([N+](=O)[O-])cc1[N+](=O)[O-] unit_of_measurement=µM numeric_result=870

###

Measured IC50 of individual entries
# assay.overview: Aerobic cytotoxic activity was evaluated by the growth inhibition of AA8 (chinese hamster) aerobic cells
# Type: functional, cell-based
# setup.conditions: Cricetulus griseus, CHO-AA8
assay.metric: IC50

molecule_smiles=NC(=O)c1cc(N(CCCl)CCCl)c([N+](=O)[O-])cc1[N+](=O)[O-] assay_metric=IC50 result="1450 µM"
molecule_smiles=CN(C)CCNC(=O)c1cc(N(CCCl)CCCl)c([N+](=O)[O-])cc1[N+](=O)[O-] assay_metric=IC50 result="220 µM"
